# SYSTEM TESTED: Peroxisome proliferator-activated receptor alpha (Homo sapiens, UniProt Q07869)
# Sequence (Q07869 whole entry, the tested form may be a part): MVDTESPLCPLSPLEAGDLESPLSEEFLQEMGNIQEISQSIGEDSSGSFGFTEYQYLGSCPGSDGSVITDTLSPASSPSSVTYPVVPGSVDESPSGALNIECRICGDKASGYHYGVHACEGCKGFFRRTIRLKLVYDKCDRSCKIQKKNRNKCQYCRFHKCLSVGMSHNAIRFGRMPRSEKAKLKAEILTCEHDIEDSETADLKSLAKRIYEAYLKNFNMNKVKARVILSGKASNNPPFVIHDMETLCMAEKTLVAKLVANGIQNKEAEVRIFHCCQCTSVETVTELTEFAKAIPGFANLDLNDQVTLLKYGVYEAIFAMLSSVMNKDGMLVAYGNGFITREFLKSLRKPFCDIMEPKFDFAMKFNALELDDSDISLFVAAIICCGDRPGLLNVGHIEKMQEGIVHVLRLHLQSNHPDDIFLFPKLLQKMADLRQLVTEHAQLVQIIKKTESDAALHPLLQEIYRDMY
# TEST DESCRIPTION: Agonist activity at yeast Gal4-fused human PPARalpha LBD transfected in human HepG2 cells assessed as transactivation by measuring beta-galactosidase activity incubated for 20 hrs by luminometry
OBSERVED PROPERTY: EC50 (nM)

>  <COMPOUND>
CC(C)(C)OC(=O)NC(CSCc1ccc(C(=O)c2ccccc2)cc1)C(=O)O (centres undefined)

>  <EC50 [nM]>
1600

$$$$
>  <COMPOUND>
CC(C)(C)OC(=O)NC(COCc1ccc(C(=O)c2ccccc2)cc1)C(=O)O (centres undefined)

>  <EC50 [nM]>
12100

$$$$
>  <COMPOUND>
CC(C)(C)OC(=O)NC(CSCc1ccccc1)C(=O)O (centres undefined)

>  <EC50 [nM]>
1450

$$$$
>  <COMPOUND>
CC(C)(C)OC(=O)NC(CSCc1ccc(C(=O)c2ccc(Cl)cc2)cc1)C(=O)O (centres undefined)

>  <EC50 [nM]>
370

$$$$

a. CC(C)(C)OC(=O)NC(CSCc1ccc(C(=O)c2ccc(C(F)(F)F)cc2)cc1)C(=O)O (centres undefined)
b. CC(C)(C)OC(=O)NC(COCc1ccc(Cc2ccccc2)cc1)C(=O)O (centres undefined)
c. CC(C)(C)OC(=O)NC(CSCc1ccc(-c2ccccc2)cc1)C(=O)O (centres undefined)
d. O=C(Cc1ccccc1)NC(CSCc1ccccc1)C(=O)O (centres undefined)
input: Please list the entries, largest EC50 first. Please, when replying, give the labels in the order that was requested.
output: b, d, c, a

Just for reference, ChEMBL document CHEMBL5154813 is where these values come from.
